Provenance of the data: PubChem BioAssay

# Target Under Test: Concanavalin-A (Canavalia ensiformis)
# Procedure Summary: ConA small-molecule binders, primary screen, artefact control for SMM control protein annotation, biochemical, small-molecule microarray, Alexa647 label, 635 nm (AID 1127);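 also: z combines 667 nm emission intensity with signal-to-noise across three replicate slides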
# Conditions Used: ConA-A647 binding fluorescence, higher = more signal
Give composite z-score for every item shown.
One number for each entry.

CO[C@H]1COC(=O)[C@H](C)COC(=O)CC=C[C@@H](C)[C@H](OC)COC(=O)CC=C[C@@H]1C = 0.184
O=C1[C@H]2[C@H]3[C@H](O)[C@H](O)CC(=NO[C@@H]4O[C@H](CO)[C@@H](O)[C@H](O)[C@H]4O)[C@@H]3CC[C@H]2C(=O)N1Cc1ccccc1 = -0.664
COC(=O)[C@H](C)NC(=O)CCC1CC(OC(=O)NCc2cccc3ccccc23)CC2(CCCC(COC(=O)NCCc3ccc(Cl)cc3)O2)O1 (stereo partly drawn) = 0.946
CC(C)(C)N1C(=O)[C@H]2[C@H]3[C@H](O)[C@H](O)CC(=NO[C@@H]4O[C@H](CO)[C@@H](O)[C@H](O)[C@H]4O)[C@@H]3CC[C@H]2C1=O = 0.0237
COc1ccc([Si](C)(C)[C@@H]2[C@@H](CC(=O)N3CCC[C@H]3CO)O[C@]3(C(=O)N(Cc4cccc(N5CCC5=O)c4)c4ccccc43)[C@H]2C)cc1 = 0.811

Give me composite z-score for each of these compounds, listed below.
1. C=COC[C@H]1CN2[C@@H](CC[C@@H](C)[C@@H]2c2ccc(Br)cc2)C(=O)O1
2. O=C1C2C=CC(C(O)c3ccc([N+](=O)[O-])cc3)N(Nc3ccc([N+](=O)[O-])cc3)C2C(=O)N1c1ccccc1 (stereo not drawn)
3. O=C1[C@H]2[C@H]3[C@H](O)[C@H](O)CC(=NOCc4ccccc4)[C@H]3CC[C@H]2C(=O)N1C[C@@H]1CCCO1
4. CCN1C(=O)[C@H]2[C@H]3[C@H](O)[C@H](O)CC(=NOCC=C(C)CCC=C(C)C)[C@H]3CC[C@H]2C1=O
5. CC(CCN1CCc2nc(-c3ccccc3)c(-c3ccccc3)cc2C1)=NO[C@@H](C)c1cn([C@H](CO)Cc2ccccc2)nn1
6. COc1ccc(O[C@H]2C=C[C@@H](c3ccccc3)O[C@@H]2COC(=O)CCC(C)=NO[C@@H](C)c2cc(-c3c(C)cc(C)cc3C)no2)cc1

[out]
1: 1.03; 2: 1.19; 3: 0.652; 4: -0.0616; 5: -0.602; 6: -1.63

Go through the items and report each one's composite z-score.
1. CC(C)N1CC=CC23O[C@@H]4C=CCCOC(=O)C4[C@H]2C(=O)N(CCCCCCO)[C@@H]3C1=O (stereo partly drawn)
2. CCCC[C@@H]1C[C@H]1[C@@H](NS(=O)(=O)c1cccc2cccnc12)c1ccc(-c2ccccc2)cc1

[out]
[-0.428, 0.119]

List the reported composite z-score of each compound below.
1. CCOc1ccc(N2C(=O)/C(=C/C=C/c3ccccc3OC)S(=O)(=O)C2c2cccc([N+](=O)[O-])c2)cc1 (stereo not drawn)
2. [N-]=[N+]=NCc1ccccc1C[C@]1(C(=O)NCc2ccccc2)N=C(c2ccc(OCCCO)cc2)O[C@H]1c1ccccc1N=[N+]=[N-]
3. CO[C@@H]1COC(=O)[C@H](C)NC(=O)[C@@H](C)COC(=O)CCC[C@H]1C
4. COc1ccc(-c2ccc3c(n2)CCCN3CC(O)CN2CCCc3nc(C)c(C)cc32)cc1 (stereo not drawn)
5. C#CCCCON=C1C[C@@H](O)[C@@H](O)[C@@H]2[C@@H]3C(=O)N(CCC(=O)OCC)C(=O)[C@@H]3CC[C@@H]12
6. CC(C)CON=C1C[C@@H](O)[C@@H](O)[C@@H]2[C@@H]3C(=O)N(Cc4ccccc4)C(=O)[C@@H]3CC[C@@H]12
7. COC(=O)[C@@H]1CC[C@H](C)[C@@H](c2ccc(C)cc2)N1C(=O)c1ccc(C=NOC(C)CN2CCCCc3nc(C)c(C)cc32)cc1 (stereo partly drawn)
8. CCCC=C(CCC)[C@@H](NC(=O)c1ccc(-c2ccccc2)cc1)c1ccc(C(=O)OC)cc1

[out]
1: 0.133; 2: 0.822; 3: -0.288; 4: 1.09; 5: -0.962; 6: -0.0393; 7: 0.951; 8: 0.724

Provide composite z-score for all items below, preserving their order.
1. O=C1NC(=O)C2C1C=CC(C(O)Cc1ccccc1)N2Nc1ccccn1 (stereo not drawn)
2. CS(=O)(=O)CCOC(=O)C1=CC(CCCO)=CC(c2cccs2)N(Cc2cccc(OC(F)(F)F)c2)C=C1C(=O)OCCS(C)(=O)=O (stereo not drawn)
3. COc1ccc(COC(=O)NN=C2C[C@@H](O)[C@@H](O)[C@@H]3[C@@H]4C(=O)N(Cc5ccc6c(c5)OCO6)C(=O)[C@@H]4CC[C@@H]23)cc1
4. O=C1[C@H]2[C@H]3[C@H](O)[C@H](O)CC(=NO[C@@H]4O[C@H](CO)[C@@H](O)[C@H](O)[C@H]4O)[C@H]3CC[C@H]2C(=O)N1Cc1ccccc1

[out]
1. 0.77
2. 1.16
3. -1.3
4. 0.0723

----------
So I've got a bunch of molecules here, and I need their z-score values.
# Procedure Summary: E. coli acrAB mutant growth effects, primary screen, E. coli filamentation inducers, strain DRC39, OD650, 48 h (AID 1179);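 also: screen aims at cell division blockers that make cells filament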
# Conditions Used: E. coli DRC39 delta-acrAB growth, higher = more signal, called active from +8 up or from −8 down
The source made the active and inactive calls.

Take a look at these entries with their results.
C[C@@H](c1ccccc1)N1C(=O)[C@H]2[C@H]3[C@H](O)[C@H](O)CC(=NNC(=O)OCc4ccccc4)[C@H]3CC[C@H]2C1=O = -0.462 (inactive)
COc1cccc([C@H]2Oc3ccc(OC)cc3C(=NO[C@H](C)c3cn([C@@H]4COC[C@H]4O)nn3)[C@@H]2O)c1 = -2.22 (inactive)

# map each molecule to its z-score
1. CCOC(=O)[C@H](CC(C)C)NC(=O)CCC1CC(OC(=O)NCCc2ccc(F)cc2)CC2(CCCC(COC(=O)NCc3ccccc3)O2)O1 (some centres not stated)
2. COC(=O)[C@@]1(Cc2ccccc2)[C@H]2c3cc(C(=O)N4CCCC4)n(Cc4ccccn4)c3C[C@H]2CN1C(=O)c1ccccc1
3. C[C@H]1Cc2c(-c3ccccc3)nc3c(c2CO1)CN(CCOc1ccccc1)CC3
4. COCCOC(=O)N1C(=O)[C@@]2(c3cc(C#CC4(O)CCCCCC4)ccc31)[C@H](c1ccc(OCCO)cc1)N1[C@H](c3ccccc3)[C@H](c3ccccc3)OC(=O)[C@H]1[C@@H]2C(=O)NC[C@H](O)c1ccccc1
5. O=C1[C@H]2[C@H]3[C@H](O)[C@H](O)CC(=NOC[C@@H](O)COCc4ccco4)[C@H]3CC[C@H]2C(=O)N1Cc1ccc2c(c1)OCO2

[out]
["-0.565 (inactive)", "-0.551 (inactive)", "-0.176 (inactive)", "0.0869 (inactive)", "1.11 (inactive)"]

----------
# Target Under Test: E3 ubiquitin-protein ligase XIAP (Homo sapiens) (UniProt P98170)
# Sequence (P98170 whole entry, looked up): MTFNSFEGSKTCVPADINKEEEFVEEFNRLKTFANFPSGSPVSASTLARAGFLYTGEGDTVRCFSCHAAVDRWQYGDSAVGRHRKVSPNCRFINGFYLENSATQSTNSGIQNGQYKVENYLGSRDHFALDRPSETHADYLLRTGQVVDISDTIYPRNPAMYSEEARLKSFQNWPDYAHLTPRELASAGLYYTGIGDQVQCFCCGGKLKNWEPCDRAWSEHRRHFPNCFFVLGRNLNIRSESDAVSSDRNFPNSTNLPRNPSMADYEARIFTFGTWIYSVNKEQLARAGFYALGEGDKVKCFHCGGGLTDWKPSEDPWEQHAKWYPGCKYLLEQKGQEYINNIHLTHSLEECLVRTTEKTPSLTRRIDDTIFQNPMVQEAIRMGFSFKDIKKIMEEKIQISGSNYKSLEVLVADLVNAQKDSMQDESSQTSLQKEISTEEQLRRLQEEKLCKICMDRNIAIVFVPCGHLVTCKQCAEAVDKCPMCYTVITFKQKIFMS
# Procedure Summary: XIAP binders, primary screen, biophysical, small-molecule microarray, fluorescence 635 nm (AID 1181);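 also: score merges 667 nm emission and signal to noise over triplicate slides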
# Conditions Used: small-molecule microarray binding, higher = more signal
Hi there, I'd appreciate the recorded composite z-score for every entry that follows.
One number for each entry.

C[C@H](c1ccccc1)N1C(=O)[C@H]2[C@H]3[C@H](O)[C@H](O)CC(=O)[C@@H]3CC[C@H]2C1=O = -0.0826
COC(=O)CC=C[C@H](C)[C@H](CO)NS(=O)(=O)c1ccc(C)cc1 = -0.123
COc1ccc([Si](C)(C)[C@H]2[C@H](CCO)O[C@@]3(C(=O)N(Cc4cccc(NC(=O)[C@H](C)O)c4)c4ccccc43)[C@@H]2C)cc1 = 0.131
CC(C)(C)OC(=O)CC[C@]1(C(N)=O)COC(c2ccc(OCCCO)cc2)=N1 = 0.276
CCc1cc2c(nc1CC)CCN(CCC(C)=NO[C@@H](C)c1cc(-c3c(C)cc(C)cc3C)no1)C2 = 0.19

Dear reader, for each entry below, please note its composite z-score.
1. COC(=O)[C@H](C)NC(=O)CCC1CC(OC(=O)NCc2cccc3ccccc23)CC2(CCCC(COC(=O)NCC3CCCCC3)O2)O1 (stereo not given in full)
2. Cn1cccc1C(O)C1C=CC2C(=O)NC(=O)C2N1Nc1ccccn1 (stereo not given)
3. C=CC[C@@H]1C=C[C@H](ON=C2c3cc(OC)ccc3O[C@H](c3cccc(OC)c3)[C@H]2O)[C@@H](CO)O1
4. COc1ccccc1CN1C(=O)c2ccccc2[C@@]2(Cc3ccccc3N(C(C)C)C2=O)[C@@H]1c1ccc(CO)cc1
5. COC(=O)c1c(CC[C@@H](CO)NC(=O)N[C@H](Cc2ccccc2)Cn2cc(-c3ccccc3N)nn2)oc(C(C)=O)c1C(=O)OC
6. CO[C@H]1COC(=O)CC=C[C@H](C)[C@@H](NS(=O)(=O)c2ccc(C)cc2)COC(=O)CC=C[C@@H]1C

[out]
-0.02
0.203
-0.0834
0.161
-0.127
-0.255
